Just for reference, the nanobody polyreactivity screen of Harvey et al. (2022) is where these values come from.

experiment: yeast display, Sf9 membrane polyspecificity reagent, FACS + sequencing; frameworks hold sequencing errors

| macromoleculeSequence | polyreactivity (PSR sort gate) |
| --- | --- |
| QVQLVESGGGLVQAGGSLRLSCAASGRTFYYNTMGWYRQAPGKERELVATITSSGGRTYYADSVKGRFTISRDYAKNTVYLQMNSLKPEDTAVYYCNAALSRAFKHSTGYDYWGQGTQVTVSS | low polyreactivity |
| QVLLQESGGGLVQAGVSLRLSCAASGNIFSAGGMGWYRQAPVNERELVAGIGTGTSTNYADSVKGRFTISRDNAKNTVYLQMNSLKPEDTAVYYCAAAYYSGLSHWYWGQGTQVTVSS | low polyreactivity |
| QVQLVESGGGLLQAGGSLLLSCAASGITFYDNAMGWYRQAPGKERELVAGISYDGDSTYADSVKGRFTISRDNAKNTVYLQMNSLKPEDTAVYYCAALGPYEWLWAGDYWGQGTQVTVSS | low polyreactivity |

---

test: yeast display, Sf9 membrane polyspecificity reagent, FACS + sequencing; frameworks hold sequencing errors
valueType: polyreactivity (PSR sort gate)

| macromoleculeSequence | reportedMeasurement |
| --- | --- |
| QVQLVESGGGLVQSGGSLPLSCAASGRIFSRNAMGWYRQAPGKERELVAAITSGGSTYYADSVKGRFTISRDNAKNTVYLQMNSLKPEDTAVSTVKILRYDYWGQGTQVTVSS | high polyreactivity |
| QVQLVESGGGLVQAGGSLRLSCAASGFIFYAYAMGWYRQAPGKERELVPAISRRGGSTYYADSVKGRFTISRDNAKNTVYLQMNSLKPEDTAVYYCARDWTLGRSGPKYGYWGQGTQVTVSS | high polyreactivity |
| QVQLQVRGGDLVQAGGSLRLSCAASGTIYRLTTMGWYRQAPGKEREFVAAITDGGNTNYADSVKGRFTISRDNAKNTVYLQMICLKPEDTAVYYCAVLFSDDAYYAYWGQGTQVTVSS | low polyreactivity |
| QVQLVESGGGLVQAGGSLRLSCAASGSIFYEYAMGWYRQAPGKEREFVASISWSGGITYYADSVKGRFTISRDNAKNTVYLQMNSLKPEDTAVYYCAADFSWYLYDYDYWGQGTQVTVSA | low polyreactivity |
| QVQLLESGGGLVQAGGSLRLSCAASGRIFGRYAMGWYRHAPGKERELVAAISQSGARTYYADSVKGRFTFSRDNAKNTVYLQMNSLKPEDTAVYYCAARYKALYDYWGQGTQVTVSS | high polyreactivity |

Working through the 6 sequences below one at a time, give polyreactivity (PSR sort gate) for each.
1. QVQLVESGGGLVQAGGSLRLSCAASGRTFRYNTMGWYRQAPGKERELVASISSGDRTYYADSVKGRFTISRDNAKNTVYLQMNSLKPEDTAVYYCAKDVGYWYYYWGQGTQVTVSS
2. QVQLVESGGGLVQAGGSLRLRCAASGSIFSRNAMGWYRQAPGKERELVAAISGRGGSTYYADSVKGRFTISRDNAMNTVYLQMNRLKPEDTAVYYCAKAVIYRLSEAMDYWGQGSQVTVSS
3. QVQLVESGGGLVQAGGSLRLSCAASGRTFTLYAMGWYRQAPGKERELVASITSGTRTYYADSVKGRFTISRDNAKNTVYLQMNSLKPEDTAVYYCAKEGYLRTLHRLYDYWGQGTQVTVSS
4. QVQLHESGGVLVQAGGSLRLSCAASGTISVHYNMCWYRQEPRQEREFVAGNSTGATTNYADSVKGRFTISRDNENNTVYLQMNSLKPEDTAVYYCAAHIYGQDHFYYWGQGTQVTVSS
5. QVQLVESGGGLVQAGGSLRLSCAASGSIRSYAMGWYRQAPGKERELVAAITRSGGSTYYADSVKGRFTISRDNAMNTVYLQMNSLKPEDTAVYYCAARYTYSYPLFGSWGQGTQVTVSS
6. QVQLVESGGALVQAGGSLRLSCAASGYTFSKNTMGWYRQAPGKEREFVAAINWSGGSTYYADSVKGRFTISRDNEKNTVYLQMNSLKPEDTAVYYCAARRGGRRGYDYWGQGTQVTVSS

Output line:
1. high polyreactivity
2. high polyreactivity
3. low polyreactivity
4. low polyreactivity
5. high polyreactivity
6. high polyreactivity
